- Tested on: Yap1 mRNA
- assay: Antisense inhibition of human Yap1 in SNU-449 cells by modified oligonucleotides, single dose (Example 5, RTS36584)
- Assay type: cell-based
- measurement.setup: Table 44 experiment; SNU-449 cells, 10,000 cells per well, free uptake, 2,000 nM, approximately 48 hours; RTS36584; Yap1 mRNA normalized to RIBOGREEN, relative to untreated control cells
Strand notation (5' to 3'): a small letter for the sugar, then the base; units joined by * are phosphorothioate-linked, units joined directly phosphodiester-linked; [ ] holds rarer units or linkages, { } end groups; capitals alone tell only the bases. e = 2'-O-(2-methoxyethyl) (MOE); k = constrained ethyl (cEt); [5mC] = 5-methylcytosine; d = 2'-deoxy (DNA)
quantity.name: YAP1 (% UTC)
Value and unit, in that order.

Use the examples below as a reference point.
> print(dat)
                                  substance     value
1  1198505 (kA*kT*dT*d[5mC]*dA*dG*dA*dT*dT*dT*dA*eG*kG*eA*kT*eG; antisense) [Compound 1198505]  73 % UTC
2  1198510 (k[5mC]*kT*d[5mC]*dT*dT*dA*dT*dA*dT*dG*dG*eT*kT*eT*kT*eG; antisense) [Compound 1198510]   8 % UTC

Report measured YAP1 (% UTC) on Yap1 mRNA; entry: 1198494 (antisense kG*kT*dG*d[5mC]*dT*dT*dT*dG*dG*dA*dA*eG*kA*eT*k[5mC]*eT) [Compound 1198494]
15 % UTC

With Yap1 mRNA as the test system, provide measured YAP1 (% UTC) for this substance: 1198503 (k[5mC]*kA*dG*dA*dT*dT*dT*dA*dG*dG*dA*eT*kG*e[5mC]*kA*eT; antisense) [Compound 1198503]
31 % UTC

Give the observed YAP1 (% UTC) of 1198504 (kT*k[5mC]*dA*dG*dA*dT*dT*dT*dA*dG*dG*eA*kT*eG*k[5mC]*eA; antisense) [Compound 1198504] for Yap1 mRNA.
15 % UTC

# assay system Yap1 mRNA: give YAP1 (% UTC) of 1198531 (k[5mC]*kT*dT*dT*dA*dA*dA*dG*dT*dG*dT*eA*kT*eG*kT*e[5mC]; antisense) [Compound 1198531]
21 % UTC

Please look at 1198537 (k[5mC]*kT*dA*dA*dG*dT*dA*dA*dG*dG*dT*eT*kT*e[5mC]*k[5mC]*e[5mC]; antisense) [Compound 1198537] and tell me its recorded YAP1 (% UTC) on Yap1 mRNA.
24 % UTC

Provide Yap1 mRNA YAP1 (% UTC) reading for 1198536 (kT*kA*dA*dG*dT*dA*dA*dG*dG*dT*dT*eT*k[5mC]*e[5mC]*k[5mC]*eA; antisense) [Compound 1198536] .
20 % UTC

Give YAP1 (% UTC); test system Yap1 mRNA; substance 1198499 (kT*kT*dT*dA*dG*dG*dA*dT*dG*d[5mC]*dA*eT*kG*eG*kT*eT; antisense) [Compound 1198499]
13 % UTC

Give YAP1 (% UTC); test system Yap1 mRNA; substance 1198890 (kT*kG*dT*d[5mC]*dT*d[5mC]*dA*dT*dG*d[5mC]*d[5mC]*kT*dT*kA*dT*kA) [Compound 1198890]
19 % UTC

Report value: YAP1 (% UTC), system: Yap1 mRNA, substance: 1198512 (kA*kA*d[5mC]*dT*d[5mC]*dT*dT*dA*dT*dA*dT*eG*kG*eT*kT*eT; antisense) [Compound 1198512]
62 % UTC

Retrieve YAP1 (% UTC) on Yap1 mRNA; query 1198904 (kT*kA*dT*dT*dA*dG*dA*dG*dT*dA*dT*kG*dT*kG*dG*k[5mC]; antisense) [Compound 1198904]
12 % UTC

Recall the reported YAP1 (% UTC) of 1198501 (kG*kA*dT*dT*dT*dA*dG*dG*dA*dT*dG*e[5mC]*kA*eT*kG*eG; antisense) [Compound 1198501] on Yap1 mRNA and write it down.
5 % UTC

====

- Tested on: Yap1 mRNA
- assay: Dose-dependent inhibition of human Yap1 in A-431 cells (Example 6, 5,000 cells per well, RTS4814)
- Type: cell-based
- measurement.setup: Table 54; A-431 cells, free uptake, 148 nM, approximately 48 hours, RTS4814
Strand notation (5' to 3'): a small letter for the sugar, then the base; units joined by * are phosphorothioate-linked, units joined directly phosphodiester-linked; [ ] holds rarer units or linkages, { } end groups; capitals alone tell only the bases. k = constrained ethyl (cEt); [5mC] = 5-methylcytosine; d = 2'-deoxy (DNA)
Binary call on % UTC 148 nM: condition met from 90 % UTC upward, condition not met beneath that.

Solved entries (count: 2):
> print(dat)
                                  substance     class.name
1  716493 (antisense kA*k[5mC]*kA*dT*dT*dG*dA*dA*dA*dG*dA*d[5mC]*d[5mC]*k[5mC]*kT*kT) [compound 716493]  condition met
2  716577 (antisense kT*k[5mC]*kT*dG*dT*d[5mC]*dA*dG*dT*dT*dA*dT*d[5mC]*k[5mC]*kT*kA) [compound 716577]  condition met

// next entry
Test whether the substance 716496 (antisense kG*kA*kA*dG*dA*dG*dA*dT*dT*dT*dT*dA*dT*kG*k[5mC]*k[5mC]) [compound 716496] records % UTC 148 nM of 90 % UTC or higher.
condition not met

====

- assay: Tolerability in Balb/c mice, plasma chemistry markers (Example 12)
- Format: in vivo
- measurement.setup: 50 mg/kg subcutaneously twice a week for four weeks
Strand notation (5' to 3'): a small letter for the sugar, then the base; units joined by * are phosphorothioate-linked, units joined directly phosphodiester-linked; [ ] holds rarer units or linkages, { } end groups; capitals alone tell only the bases. k = constrained ethyl (cEt); [5mC] = 5-methylcytosine; d = 2'-deoxy (DNA)
quantity.name: BUN (mg/dL)
Numbers only here, please. The scale is mg/dL.

// worked examples, BUN included
> print(dat)
                                  substance  quantity.name  value
1  958553 (k[5mC]*k[5mC]*kA*dT*dT*dA*dT*dT*dA*d[5mC]*dT*d[5mC]*d[5mC]*kT*kG*kT; antisense) [compound 958553]            BUN     29
2  958375 (antisense kA*kA*kA*dG*d[5mC]*d[5mC]*dT*dT*dA*dG*dA*dG*dT*k[5mC]*kA*kA) [compound 958375]            BUN     22
3  958729 (kG*kT*k[5mC]*dA*dG*dT*dT*dA*dT*d[5mC]*d[5mC]*dT*dA*kT*k[5mC]*kT; antisense) [compound 958729]            BUN     30
4  958736 (kG*kT*kG*dA*dT*dA*dT*dG*dG*dA*dT*dT*d[5mC]*kT*kG*kT; antisense) [compound 958736]            BUN     20
5  958499 (ATTAGAGTATGTGGCA; 3-10-3 cEt gapmer, further chemistry not given here) [compound 958499]            BUN     26

Quickly give me recorded BUN for 958509 (kA*kT*kG*dT*dT*dA*dT*dG*dT*dT*dT*dG*dG*kG*kT*kG; antisense) [compound 958509]
26

====

- Tested on: Yap1 mRNA
- assay: Antisense inhibition of human Yap1 in A-431 cells by cEt gapmers, single dose (Example 1, RTS4814)
- Assay type: cell-based
- measurement.setup: Table 1; A-431 cells, free uptake, 2,000 nM, approximately 48 hours, RTS4814; Yap1 mRNA relative to untreated control cells
Strand notation (5' to 3'): a small letter for the sugar, then the base; units joined by * are phosphorothioate-linked, units joined directly phosphodiester-linked; [ ] holds rarer units or linkages, { } end groups; capitals alone tell only the bases. k = constrained ethyl (cEt); [5mC] = 5-methylcytosine; d = 2'-deoxy (DNA)
Decide by YAP1 (% UTC): equal to or exceeding 90 % UTC means fulfilled, less means not fulfilled.

> print(dat)
                                   substance     system     class.name
 1  715496 (antisense k[5mC]*k[5mC]*k[5mC]*dT*dT*dG*dA*dA*dA*dA*dT*dA*dA*kG*kG*kG) [Compound 715496]  Yap1 mRNA      fulfilled
 2  715598 (antisense k[5mC]*k[5mC]*k[5mC]*dA*dA*dG*d[5mC]*dT*dA*d[5mC]*d[5mC]*d[5mC]*dA*kA*kG*kA) [Compound 715598]  Yap1 mRNA      fulfilled
 3  715556 (kA*kA*kG*dT*dT*dA*dT*dT*d[5mC]*dA*dG*d[5mC]*dA*kG*k[5mC]*kT; antisense) [Compound 715556]  Yap1 mRNA  not fulfilled
 4  715481 (antisense kT*kT*kG*dG*dA*dA*dA*d[5mC]*d[5mC]*dA*dT*dT*dA*kT*kT*kA) [Compound 715481]  Yap1 mRNA  not fulfilled
 5  715421 (kG*kT*kG*dA*dT*dT*dT*dA*dA*dG*dA*dA*dG*kT*kA*kT; antisense) [Compound 715421]  Yap1 mRNA  not fulfilled
 6  715409 (k[5mC]*kA*kG*dT*dA*d[5mC]*dT*dG*dG*d[5mC]*d[5mC]*dT*dG*kT*k[5mC]*kG; antisense) [Compound 715409]  Yap1 mRNA  not fulfilled
 7  715406 (k[5mC]*kT*kT*dG*dA*dA*dG*dA*dA*dG*dG*dA*dG*kT*k[5mC]*kG; antisense) [Compound 715406]  Yap1 mRNA  not fulfilled
 8  715550 (kA*kG*kG*dA*dA*dG*dT*dT*dG*dT*dT*dG*dA*k[5mC]*k[5mC]*kA; antisense) [Compound 715550]  Yap1 mRNA  not fulfilled
 9  715505 (antisense kA*kT*kT*dG*dG*dT*dT*dT*dA*dT*dT*dG*dT*kA*kA*kA) [Compound 715505]  Yap1 mRNA  not fulfilled
10  715610 (antisense kG*kG*k[5mC]*dT*dG*dT*dG*dT*dA*dG*dG*d[5mC]*dT*kG*kA*k[5mC]) [Compound 715610]  Yap1 mRNA  not fulfilled

Evaluate 715493 (antisense kG*kT*kG*d[5mC]*dT*dA*dG*d[5mC]*dT*dG*dG*dT*dG*k[5mC]*k[5mC]*kA) [Compound 715493] : YAP1 (% UTC) at minimum 90 % UTC?
not fulfilled

Quick check, YAP1 (% UTC) >= 90 % UTC? 715514 (kG*kA*kG*d[5mC]*dG*dA*dA*dG*dG*dT*dG*d[5mC]*dG*kG*kA*kG; antisense) [Compound 715514]
fulfilled

Hello, I need to know if 715595 (antisense kT*k[5mC]*kA*dT*dG*dG*d[5mC]*dT*dG*dA*dA*dA*dT*kG*kA*kA) [Compound 715595] has measured YAP1 (% UTC) not below 90 % UTC. Thanks!
fulfilled

Where do these numbers come from? They come from patent US11214803B2.
